EXPERIMENT NOTES: Toxicity in human RBC assessed as hemolytic activity after 24 hrs by microtiter plate assay
Type: cell-based, Erythrocyte
ASSAY CONTEXT: human red blood cells (RBC)
RECORDED ENDPOINT: EC50 at 24 h (µM)
Your answer should be a plain number; it is taken to be in µM.

Qu. May I ask what EC50 at 24 h has been recorded for C=CCC/C=C/C=C/C=C/CC/C=C/[C@@H](O)[C@H](O)C1O[C@@H]([C@H](O)[C@H](O)C(=C)CC[C@@H](O)C2C[C@@H](O)[C@@H](O)[C@H]([C@@H](O)[C@H](O)/C=C(\C)CC[C@H](O)C[C@H](O)[C@H](O)[C@@H](C)C[C@H](O)C(O)C(C)CCC(O)CCCC(O)CCCCCOS(=O)(=O)O)O2)C[C@@H](O)[C@H]1O (stereo partly specified) [AMPHIDINOL 17] ?
Ans. 4.9

Values compiled from ChEMBL document CHEMBL1154911.
